Biological target: Cytochrome P450 2C9 (Homo sapiens)
Experiment: Cytochrome P450 family 2 subfamily C member 9 (CYP2C9) small molecule antagonists: luciferase biochemical (cell-free) qHTS assay (AID 1645842); further: nearly all actives have a fitted effect of over 55% in size; further: potency means the concentration at half of the fitted maximal effect
Details: P450-Glo CYP2C9 enzyme assay, luciferin luminescence; series mostly up to 57.4 µM
Records with an inconclusive call do not appear. Activity calls are given as the source filed them. The call rests on the fitted dose curve; in most records, active means well fitted inhibition curve with a large enough effect in the repeat runs; inconclusive means weak or mixed curves; inactive means no such curve, though single readings can be large or run the other way.
MEASURED_PROPERTY: Potency

Examples with answers:
CCOC(=O)c1ccc(OCCN2C[C@H](O)[C@@H](O)[C@H](O)[C@H]2CO)cc1; inactive
CNC[C@H](O)[C@@H](O)[C@H](O)[C@H](O)CO; inactive
OCc1c[nH]c2ccccc12; 7.31 µM (active)
Nc1cccc2c(N)cccc12; 18.9 µM (active)
CC(=O)OC/C=C(C)/C=C/C=C(C)/C=C/C1=C(C)CCCC1(C)C; 15.5 µM (active)
OCCc1ccccc1; inactive

Using the record for CCCCCCCCCCCCCC[N+](C)(C)C , report its Potency. inactive

And then CC(CC1c2ccccc2CCc2ccccc21)CN(C)C (configuration not stated) , what is it? inactive

And then CC(C)(C)CC(=O)OCC(=O)[C@@]1(O)CC[C@H]2[C@@H]3CCC4=CC(=O)C=C[C@]4(C)[C@H]3[C@@H](O)C[C@@]21C , what is it? 11 µM (active)

And then CCCCCCCCCCCC[N+](C)(C)Cc1ccccc1 , what is it? 15.5 µM (active)

And then C/C(=C1\CCOC(=O)S1)N(C=O)Cc1cnc(C)nc1N , what is it? inactive

And then Nc1ncnc2nc[nH]c12 , what is it? inactive

====

Experiment: qHTS of pediatric cancer cell lines to identify multiple opportunities for drug repurposing: Primary screen for SJ-GBM2 cells (AID 1347091)
Conditions: SJ-GBM2 viability, CellTiter-Glo luminescence, 48 h; series mostly up to 46 µM
Results filed as inconclusive are left out. Calls of active or inactive are those of the source. The call rests on the fitted dose curve; in most records, active means well fitted cell-killing curve with a large enough effect; inconclusive means small, poorly fitted or top-dose-only effect; inactive means no such curve, though single readings can be large or run the other way.
Can you answer with just one of these options? true (1) = active, false (0) = inactive

// below: answered molecules
CCCCCCn1c(=O)c2c(ncn2C)n(C)c1=O; false (0)
CCCN(CCC)C(=O)C(CCC(=O)OCCCN1CCN(CCOC(=O)Cc2c(C)n(C(=O)c3ccc(Cl)cc3)c3ccc(OC)cc23)CC1)NC(=O)c1ccccc1 (configuration not stated); true (1)
CC1CCCCN1CCCOC(=O)c1ccc(OC2CCCCC2)cc1 (configuration not stated); false (0)
NC(=O)NS(=O)(=O)c1ccc(Cl)cc1; false (0)
O=C(O)Cc1ccc(OCCNC[C@H](O)c2ccccc2)cc1; false (0)

Hey, what did the test say about O=C(OCC(O)CO)c1ccccc1Nc1ccnc2c(C(F)(F)F)cccc12 (configuration not stated) ? false (0)

And then OC1(c2ccccc2)CCNCC1 , what is it? false (0)

====

System: CRL-7250
Assay: Cytotoxic Profiling of Annotated Libraries Using Quantitative High-Throughput Screening (AID 1296008); further: on the % scale 0 is the no-effect control and ±100 the full control effect; nearly all actives have a fitted effect of over 60% in size
Conditions: Five cell lines viability, CellTiter-Glo ATP luminescence, 48-72 h; hits give low values
Results filed as inconclusive are left out. *1 amine or outer side, *2 acyl side, *3 side chain or, on linkers, in order; H or OH if unused. Where a SMILES comes first, the peptide text is derived from it. Bridges are numbered along the chain shown (N, C = ends). [ ]: non-standard residue; d: D form. The star is where a group is joined. ξ: configuration not given here. X10 = NC1=NCCC(C(N[*:1])C(=O)[*:2])N1; ΔAla(3-NHCONH2) = NC(=O)NC=C(N)C(=O)O; ξβ3hOrn = NCCCC(N)CC(=O)*; Dap = NC[CH](N)C(=O)O
Overview of reported max response across a group of compounds:
API: value field is a number in %; no unit string.

Examples with answers:
CC(NC(CCc1ccccc1)C(=O)O)C(=O)N1C(=O)N(C)CC1C(=O)O (centres undefined); 1.99
CC(=O)O[C@@H]1CC2C3CCc4cc(OC(=O)c5ccccc5)ccc4C3CCC2(C)[C@H]1OC(C)=O (some centres undefined); -8.96
CCCCC(CC)CNC(=O)CC(C)OC(=O)CCC(=O)O (centres undefined); -4.08
NCCCC(N)CC(=O)NCC1NC(=O)C(CO)NC(=O)C(N)CNC(=O)C(C2CCN=C(N)N2)NC(=O)C(=CNC(N)=O)NC1=O (stereo not drawn) (H-[Dap]S[Dap](ξβ3hOrn)[ΔAla(3-NHCONH2)][X10]; lactam 1-C; configuration not given here); -12.1

Now take the following compound into account.
Using the record for CN(C)CCN1CCN(c2cccc(Cl)c2)C1=O , report its max response. -6.51

====

Test: qHTS of pediatric cancer cell lines to identify multiple opportunities for drug repurposing: Primary screen for NB-EBc1 cells (AID 1347095)
Details: NB-EBc1 neuroblastoma viability, CellTiter-Glo luminescence, 48 h; series mostly up to 46 µM
Records with an inconclusive call do not appear. Active and inactive are the calls of the source. The call rests on the fitted dose curve; in most records, active means well fitted cell-killing curve with a large enough effect; inconclusive means small, poorly fitted or top-dose-only effect; inactive means no such curve, though single readings can be large or run the other way.
Can you answer with just one of these options? active, inactive

CCCCCCCC(=O)[O-].CCCCCCCC(=O)[O-].[Zn+2]; inactive
CCOC(=O)N1CCC(Nc2ccc(Cl)cc2N)CC1; active
Cc1cc(C(C)(C)C)c(O)c(C(C)(C)C)c1; inactive
O=C(CCCl)NCCc1ccccc1; inactive

Hey, what did the test say about COc1ccc(-n2nc(CCC(=O)N(C)O)cc2-c2ccc(Cl)cc2)cc1 ? active

And then O=C(CCCCC(=O)Nc1c(I)cc(I)c(C(=O)O)c1I)Nc1c(I)cc(I)c(C(=O)O)c1I , what is it? inactive

And then CCCC(CCC)(C(=O)OCC)C(=O)OCC , what is it? inactive

====

Experiment: qHTS of pediatric cancer cell lines to identify multiple opportunities for drug repurposing: Primary screen for Saos-2 cells (AID 1347097); further: nearly all actives have a fitted effect of over 40% in size
Conditions: Saos-2 viability, CellTiter-Glo ATP luminescence, 48 h; series mostly up to 46 µM
Records with an inconclusive call do not appear. Calls of active or inactive are those of the source. Calls follow the shape of the dose curve; as a rule, active = well fitted cell-killing curve with a large enough effect; inconclusive = small, poorly fitted or top-dose-only effect; inactive = no such curve, though single readings can be large or run the other way.
Can you answer with just one of these options? true for active, false for inactive

// below: answered compounds
O=C(O)c1[nH]n(-c2ccc(S(=O)(=O)O)cc2)c(=O)c1N=Nc1ccc(S(=O)(=O)O)cc1; false
CCCCCCCCCCCCCC[N+](C)(C)C; true
CSc1ccc(/C=C2/C(C)=C(CC(=O)O)c3cc(F)ccc32)cc1; false
Nc1nnnn1-c1ccccc1; false
C[C@@H](C1=C(CCN(C)C)Cc2ccccc21)c1ccccn1; false
Cc1ccc(O)cc1; false
COCCOCC(OC)OC; false
Cc1ccccc1C(=O)N1CC/C(=N\OS(=O)(=O)O)c2ccc(Cl)cc21; false

Hey, what did the test say about CCc1cc2cc(OC)c(OC)cc2c(Cc2ccccc2)n1 ? false

And then CC(=O)N[C@@H](CCC(N)=O)C(=O)O , what is it? false

And then CCN(CC)CCN , what is it? false

And then C[C@]12CCC(=O)C=C1CC[C@@H]1[C@@H]2[C@@H](O)C[C@@]2(C)[C@H]1CC[C@]2(O)C(=O)COC(=O)CCC(=O)O , what is it? false

And then COc1ccccc1OCC1CNC(=O)O1 (centres undefined) , what is it? false

And then COc1ccc2c(c1)c(CC(=O)OC/C=C(\C)CC/C=C(\C)CCC=C(C)C)c(C)n2C(=O)c1ccc(Cl)cc1 , what is it? false

And then Nc1c(NC/C=C\COc2cc(CN3CCCCC3)ccn2)c(=O)c1=O , what is it? false

====

System: KB-3-1
Assay: Cytotoxic Profiling of Annotated Libraries Using Quantitative High-Throughput Screening (AID 1296008); further: on the % scale 0 is the no-effect control and ±100 the full control effect; nearly all actives have a fitted effect of over 60% in size
Conditions: Five cell lines viability, CellTiter-Glo ATP luminescence, 48-72 h; hits give low values
Records with an inconclusive call do not appear.
Overview of reported max response across a group of molecules:
API: value field is a number in %; no unit string.

Examples with answers:
CC1c2ccccc2CN1NC(=O)c1ccc(Cl)c(S(N)(=O)=O)c1 (stereo not given); 8.25
CCCCNc1ccc(C(=O)OCCN(CC)CC)cc1; -0.138
CCNC(=O)NCCCOc1cccc(CN2CCCCC2)c1; -12.8
CCOC(=O)OCC/C(SC(=O)OCC)=C(\C)N(C=O)Cc1cnc(C)nc1N; -13.2
Oc1ccccc1; -6.38
Cc1cccc(C)c1NC(=O)c1cc(S(N)(=O)=O)c(Cl)cc1O; -20.9
O=C(CCC1CCN(Cc2ccccc2)CC1)c1ccc2c(c1)NCCCC2; -12.9
O=C(NN1CCCC1)NS(=O)(=O)c1ccc(Cl)cc1; 5.98

Using the record for OCc1c[nH]c2ccccc12 , report its max response. -7.74

And then c1ccc2occc2c1 , what is it? -9.71

And then CC1(C)S[C@@H]2[C@H](NC(=O)C(c3ccccc3)S(=O)(=O)O)C(=O)N2[C@H]1C(=O)O (stereo not given in full) , what is it? -0.526

And then CC(C)OC(=O)c1cc2c(OCC(O)CNC(C)(C)C)cccc2[nH]1 (stereo not given) , what is it? -5.12

And then O=C(O)c1ccccc1S , what is it? -5.69
